compounds and their reported log10 CC50
Tested on: LoVo
Experiment: SRB colorimetric assay of cell growth and viability, LoVo
Type: cell-based, human
Conditions: 48 hours exposure; read-out: LC50 LOVO
Description: The finality of this assay is to interrupt the growth of a “in vitro” tumor cell culture by means a continued exhibition of the cells to the sample to be testing. […] Cells are seeded in 96 well microtiter plates, at 5×10^3 cells per well in aliquots of 195 μL medium, and they are allowed to attach to the plate surface by growing in drug free medium for 18 hours. […] Optical densities are read on a automated spectrophotometric plate reader at a single wavelength of 490 nm. […]
Where a SMILES comes first, the peptide text is derived from it. Bridges are numbered along the chain shown (N, C = ends). [ ]: non-standard residue; d: D form. The star is where a group is joined. d(aIle) = CC[C@H](C)[C@@H](N)C(=O)O; d(aThr) = C[C@@H](O)[C@@H](N)C(=O)O; Hexanoyl(5-Me) = CC(C)CCCC(=O)*; Orn = NCCC[C@H](N)C(=O)O; Dhb = C/C=C(\N)C(=O)O
Heads up: the numbers are on a log10 scale; they represent CC50 in nM.

# compound, reported-property, recorded-measurement
data = [
    ("C/C=C1\\NC(=O)[C@H](Cc2ccccc2)NC(=O)[C@@H](C(C)C)NC(=O)[C@@H]([C@@H](C)CC)NC(=O)[C@H](NC(=O)[C@H](NC(=O)[C@H](CCCN)NC(=O)[C@H]2CCCN2C(=O)[C@H](NC(=O)[C@@H](NC(=O)[C@@H](NC(=O)[C@H](NC(=O)CCCNC(=N)N)C(C)C)[C@@H](C)O)C(C)C)C(C)C)[C@@H](C)CC)[C@@H](C)OC(=O)[C@H](C(C)C)NC1=O [Compound 29, [4-GuBut^14]-KF]", "log10 CC50", 3.83),
    ("C/C=C1\\NC(=O)[C@H](Cc2ccccc2)NC(=O)[C@@H](C(C)C)NC(=O)[C@@H]([C@@H](C)CC)NC(=O)[C@H](NC(=O)[C@H](NC(=O)[C@H](CCCN)NC(=O)[C@H]2CCCN2C(=O)[C@H](NC(=O)[C@@H](NC(=O)[C@@H](NC(=O)[C@@H](CCC(N)=O)NC(=O)CCCC(C)C)[C@@H](C)O)C(C)C)C(C)C)[C@@H](C)CC)[C@@H](C)OC(=O)[C@H](C(C)C)NC1=O [Compound 40, [D-Gln^13]-KF]", "log10 CC50", 3.47),
    ("C/C=C1\\NC(=O)[C@H](Cc2ccccc2)NC(=O)[C@@H](C(C)C)NC(=O)[C@@H]([C@@H](C)CC)NC(=O)[C@H](NC(=O)[C@H](NC(=O)[C@H](CCCN)NC(=O)[C@H]2CCCN2C(=O)[C@H](NC(=O)[C@H](Cc2ccccc2)NC(=O)[C@@H](NC(=O)[C@H](NC(=O)CCCC(C)C)C(C)C)[C@@H](C)O)C(C)C)[C@@H](C)CC)[C@@H](C)OC(=O)[C@H](C(C)C)NC1=O [Compound 43, [Phe^11]-KF] ({Hexanoyl(5-Me)}-[dV]TF[dV][dP][Orn][d(aIle)][d(aThr)][d(aIle)][dV]F[Dhb]V; ester 8-C)", "log10 CC50", 2.67),
    ("C/C=C1\\NC(=O)[C@H](Cc2ccccc2)NC(=O)[C@@H](C(C)C)NC(=O)[C@@H]([C@@H](C)CC)NC(=O)[C@H](NC(=O)[C@H](NC(=O)[C@H](CCCN)NC(=O)[C@H]2CCCN2C(=O)[C@H](NC(=O)[C@@H](NC(=O)[C@H](C)NC(=O)CCCC(C)C)C(C)C)C(C)C)[C@@H](C)CC)[C@@H](C)OC(=O)[C@H](C(C)C)NC1=O [Compound 52, [Ala^12, noD-Val^13]-KF] ({Hexanoyl(5-Me)}-AV[dV][dP][Orn][d(aIle)][d(aThr)][d(aIle)][dV]F[Dhb]V; ester 7-C)", "log10 CC50", 3.87),
    ("C/C=C1\\NC(=O)[C@H](Cc2ccccc2)NC(=O)[C@@H](C(C)C)NC(=O)[C@@H]([C@@H](C)CC)NC(=O)[C@H](NC(=O)[C@H](NC(=O)[C@H](CCCN)NC(=O)[C@H]2CCCN2C(=O)[C@H](NC(=O)[C@@H](NC(=O)[C@@H](NC(=O)[C@H](NC(=O)Cc2ccc(C(F)(F)F)cc2)C(C)C)[C@@H](C)O)C(C)C)C(C)C)[C@@H](C)CC)[C@@H](C)OC(=O)[C@H](C(C)C)NC1=O [Compound 25, [p-CF3PhAc^14]-KF]", "log10 CC50", 3.21),
]

Asked: // query log10 CC50 value for entry C/C=C1\NC(=O)[C@H](Cc2ccccc2)NC(=O)[C@@H](C(C)C)NC(=O)[C@@H]([C@@H](C)CC)NC(=O)[C@H](NC(=O)[C@H](NC(=O)[C@H](CCCN)NC(=O)[C@H]2CCCN2C(=O)[C@H](NC(=O)[C@H](CC(C)C)NC(=O)[C@@H](NC(=O)[C@H](NC(=O)CCCC(C)C)C(C)C)[C@@H](C)O)C(C)C)[C@@H](C)CC)[C@@H](C)OC(=O)[C@H](C(C)C)NC1=O [Compound 45, [Leu^11]-KF] ({Hexanoyl(5-Me)}-[dV]TL[dV][dP][Orn][d(aIle)][d(aThr)][d(aIle)][dV]F[Dhb]V; ester 8-C)
Given back: 2.68

Asked: Cool, now C/C=C1\NC(=O)[C@H](Cc2ccccc2)NC(=O)[C@@H](C(C)C)NC(=O)[C@@H]([C@@H](C)CC)NC(=O)[C@H](NC(=O)[C@H](NC(=O)[C@H](CCCN)NC(=O)[C@H]2CCCN2C(=O)[C@H](NC(=O)[C@@H](NC(=O)[C@@H]2CCCN2C(=O)CCCC(C)C)C(C)C)C(C)C)[C@@H](C)CC)[C@@H](C)OC(=O)[C@H](C(C)C)NC1=O [Compound 55, [Pro^12, noD-Val^13]-KF] ({Hexanoyl(5-Me)}-PV[dV][dP][Orn][d(aIle)][d(aThr)][d(aIle)][dV]F[Dhb]V; ester 7-C)
Given back: 3.86

Asked: What would you report for C/C=C1\NC(=O)[C@H](Cc2ccccc2)NC(=O)[C@@H](C(C)C)NC(=O)[C@@H]([C@@H](C)CC)NC(=O)[C@H](NC(=O)[C@H](NC(=O)[C@H](CCCN)NC(=O)[C@H]2CCCN2C(=O)[C@H](NC(=O)[C@@H](NC(=O)[C@@H](NC(=O)[C@H](NC(=O)c2ccc(C(F)(F)F)cc2)C(C)C)[C@@H](C)O)C(C)C)C(C)C)[C@@H](C)CC)[C@@H](C)OC(=O)[C@H](C(C)C)NC1=O [Compound 21, [p-CF3Bza^14]-KF] ?
Given back: 2.61
